Target: OGA (S400 O-GLCNAC), HEK-293T cells transfected with Tau-V5 (Homo sapiens (Human), UniProt O60502)
Sequence (O60502 whole entry): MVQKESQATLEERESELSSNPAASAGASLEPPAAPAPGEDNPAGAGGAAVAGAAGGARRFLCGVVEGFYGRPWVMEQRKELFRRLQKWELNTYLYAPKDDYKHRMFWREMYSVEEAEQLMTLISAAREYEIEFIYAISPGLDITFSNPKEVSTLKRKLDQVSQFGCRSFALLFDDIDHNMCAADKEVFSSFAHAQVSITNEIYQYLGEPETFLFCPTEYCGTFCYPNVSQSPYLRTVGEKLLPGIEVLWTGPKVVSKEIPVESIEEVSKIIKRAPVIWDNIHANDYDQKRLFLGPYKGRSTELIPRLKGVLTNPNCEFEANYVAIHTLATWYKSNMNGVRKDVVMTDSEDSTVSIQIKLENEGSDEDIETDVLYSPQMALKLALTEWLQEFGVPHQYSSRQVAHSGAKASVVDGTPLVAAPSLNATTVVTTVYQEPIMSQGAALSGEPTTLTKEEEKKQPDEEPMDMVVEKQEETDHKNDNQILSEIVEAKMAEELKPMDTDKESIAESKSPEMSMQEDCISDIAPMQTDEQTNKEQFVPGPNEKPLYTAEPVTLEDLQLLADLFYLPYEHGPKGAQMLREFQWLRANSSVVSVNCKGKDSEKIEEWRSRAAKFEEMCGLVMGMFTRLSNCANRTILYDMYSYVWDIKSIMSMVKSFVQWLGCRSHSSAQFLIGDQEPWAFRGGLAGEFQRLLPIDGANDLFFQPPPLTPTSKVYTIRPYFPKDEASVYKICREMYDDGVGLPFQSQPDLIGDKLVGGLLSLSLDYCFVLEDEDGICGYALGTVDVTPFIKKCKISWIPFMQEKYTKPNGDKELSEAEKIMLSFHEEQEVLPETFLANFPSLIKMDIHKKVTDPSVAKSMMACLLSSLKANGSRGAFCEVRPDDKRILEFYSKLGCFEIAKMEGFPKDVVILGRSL
Assay: Cellular OGA-Tau MSD Assay
Type: cell-based
Settings: HEK-293T cells, Tau-S400-GlcNAc MSD readout
Quantity Measured: IC50 (nM)

{"Molecule": "COc1cc(O[C@H]2CC[C@H](C)N(Cc3sc(NC(C)=O)nc3F)C2)ncn1", "IC50 / nM": 2}
{"Molecule": "CC(=O)Nc1nc(F)c(CN2C[C@H](Oc3ncc(Cl)cn3)C[C@@H]2C)s1", "IC50 / nM": 1}
{"Molecule": "[2H]C(c1sc(NC(C)=O)nc1F)N1C[C@H](Oc2cc(OC)ncn2)C[C@@H]1C (single isomer, unassigned)", "IC50 / nM": 1}
{"Molecule": "CC(=O)Nc1ncc(CN2CCC[C@H](Oc3cc(C)nc(C)c3)C2)s1", "IC50 / nM": 31}
{"Molecule": "COc1cc(O[C@@H]2C[C@H](C)N(Cc3sc(NC(C)=O)nc3F)C2)ncc1F", "IC50 / nM": 1}

[P] CCN(C)c1cc(O[C@@H]2C[C@H](C)N(Cc3cnc(NC(C)=O)s3)C2)ncn1
[Q] CC(=O)Nc1ncc(CN2C[C@H](Oc3cc(OC4CCC4)ncn3)C[C@@H]2C)s1
// max by IC50 over [ P , Q ] Give the label under which the chosen entry appears.
Q
(Q: 3 nM, P: 2 nM)

[P] CC(=O)Nc1ncc(CN2C[C@H](Oc3ccc(F)cn3)C[C@H]2C)s1
[Q] CC(=O)Nc1nc(F)c(CN2C[C@H](Oc3cc(OC4COC4)ncn3)C[C@@H]2C)s1
[R] CC(=O)Nc1ncc(CN2C[C@H](Oc3ccc(C(F)F)cn3)C[C@@H]2C)s1
[S] CC(=O)Nc1ncc(CN2C[C@@H](Oc3ccc(C)nc3)C[C@H]2C)s1 (stereo in doubt)
Arrange the 4 molecules from largest to smallest IC50. Your answer should be the labels, listed in the requested order.
P, Q, R, S
(P: 115 nM, Q: 4 nM, R: 2 nM, S: 1 nM)

---

Biological target: OGA (S400 O-GLCNAC), HEK-293T cells transfected with Tau-V5 (Homo sapiens (Human), UniProt O60502)
Experiment: Cellular OGA-Tau MSD Assay
Type: cell-based
Details: HEK-293T cells, Tau-S400-GlcNAc MSD readout
Quantity Measured: IC50 (nM)

{"Molecule": "CC(=O)Nc1nc(F)c(CN2C[C@H](Oc3cnc(C(F)F)cn3)C[C@@H]2C)s1 [Example 1-113]", "IC50, nM": 5}
{"Molecule": "CC(=O)Nc1ncc(CN2C[C@H](Oc3cc(=O)n(C)cn3)C[C@@H]2C)s1 [Example 1-70]", "IC50, nM": 5}

[1] CC(=O)Nc1nc(F)c(CN2C[C@H](Oc3ncccc3F)C[C@@H]2C)s1 [Example 1-94]
[2] COCCOc1cc(O[C@@H]2C[C@H](C)N(Cc3sc(NC(C)=O)nc3F)C2)ncn1 [Example 1-23]
[3] CC(=O)Nc1ncc(CN2C[C@H](Oc3cc(Cl)ncn3)C[C@@H]2C)s1 [Example 1-21]
[4] CC(=O)Nc1ncc(CN2C[C@H](Oc3cc(N(C)C)ncn3)C[C@@H]2C)s1 [Example 1-131]
[5] CC(=O)Nc1nc(F)c(CN2CC[C@H](Oc3cc(C)nc(C)c3)C2)s1 [Example 1-48]
Arrange the 5 molecules from largest to smallest IC50. Your answer should be the labels, listed in the requested order.
5, 3, 2, 1, 4
(5: 821 nM, 3: 7 nM, 2: 3 nM, 1: 2 nM, 4: 1 nM)

---

Test: Rat Liver Microsome Stability Assay
Format: in vitro ADME
Conditions: rat liver microsomes, 1 uM compound
Quantity Measured: RLM % Qh (%)

{"Molecule": "CC(=O)Nc1ncc(CN2CCC[C@@H](Oc3cc(C)nc(C)c3)C2)s1", "Observed Measurement": 85}
{"Molecule": "CC(=O)Nc1nc(F)c(CN2C[C@H](Oc3cc(F)ccn3)C[C@@H]2C)s1", "Observed Measurement": 86}
{"Molecule": "CC(=O)Nc1ncc(CN2C[C@H](Oc3ccnc(C)n3)C[C@@H]2C)s1", "Observed Measurement": 30}
{"Molecule": "CC(=O)Nc1ncc(CN2C[C@H](Oc3ccc(C(F)F)cn3)C[C@@H]2C)s1", "Observed Measurement": 90}
{"Molecule": "CC(=O)Nc1nc(F)c(CN2C[C@H](Oc3ccnc(F)c3)C[C@@H]2C)s1", "Observed Measurement": 52}
{"Molecule": "CC(=O)Nc1nc(F)c(CN2C[C@H](Oc3ncccc3F)C[C@@H]2C)s1", "Observed Measurement": 91}
{"Molecule": "CC(=O)Nc1nc(F)c(CN2C[C@H](Oc3cc(C)nc(C)c3)C[C@H]2C)s1 (stereo in doubt)", "Observed Measurement": 51}
{"Molecule": "CC(=O)Nc1ncc(CN2C[C@H](Oc3cc(OC4CCCC4)ncn3)C[C@@H]2C)s1", "Observed Measurement": 87}
{"Molecule": "COc1cncc(O[C@@H]2C[C@H](C)N(Cc3sc(NC(C)=O)nc3F)C2)n1", "Observed Measurement": 98}
{"Molecule": "CC(=O)Nc1ncc(CN2C[C@H](Oc3cnc(C)cn3)C[C@@H]2C)s1", "Observed Measurement": 59}

[1] CC(=O)Nc1ncc(CN2C[C@H](Oc3cc(NC4CCC4)ncn3)C[C@@H]2C)s1
[2] CCNc1cc(O[C@@H]2C[C@H](C)N(Cc3cnc(NC(C)=O)s3)C2)ncn1
[3] CC(=O)Nc1ncc(CN2C[C@H](Oc3ccc(F)nn3)C[C@@H]2C)s1
Arrange the 3 molecules from largest to smallest RLM % Qh (%). Your answer should be the labels, listed in the requested order.
1, 2, 3

---

Target: OGA (S400 O-GLCNAC), HEK-293T cells transfected with Tau-V5 (Homo sapiens (Human))
Test: Cellular OGA-Tau MSD Assay
Type: cell-based
Details: HEK-293T cells, Tau-S400-GlcNAc MSD readout
pIC50: −log10 of the molar value.
Quantity Measured: pIC50

Some compounds with known pIC50 results, for comparison:
{"Compound": "CC(=O)Nc1nc(F)c(CN2C[C@H](Oc3cc(N4CC(F)(F)C4)ncn3)C[C@@H]2C)s1", "Study System": "OGA (S400 O-GLCNAC), HEK-293T cells transfected with Tau-V5 (Homo sapiens (Human))", "pIC50": 9.00}
{"Compound": "COc1cncnc1O[C@@H]1C[C@H](C)N(Cc2cnc(NC(C)=O)s2)C1", "Study System": "OGA (S400 O-GLCNAC), HEK-293T cells transfected with Tau-V5 (Homo sapiens (Human))", "pIC50": 7.89}
{"Compound": "CC(=O)Nc1ncc(CN2C[C@H](Oc3ccc(F)nc3)C[C@@H]2C)s1", "Study System": "OGA (S400 O-GLCNAC), HEK-293T cells transfected with Tau-V5 (Homo sapiens (Human))", "pIC50": 8.70}
{"Compound": "CC(=O)Nc1nc(F)c(CN2C[C@H](Oc3cnc(C)cn3)C[C@@H]2C)s1", "Study System": "OGA (S400 O-GLCNAC), HEK-293T cells transfected with Tau-V5 (Homo sapiens (Human))", "pIC50": 8.70}
{"Compound": "[2H][C@@]1(Oc2cc(OC)ncn2)C[C@H](C)N(Cc2cnc(NC(C)=O)s2)C1 (single isomer, unassigned)", "Study System": "OGA (S400 O-GLCNAC), HEK-293T cells transfected with Tau-V5 (Homo sapiens (Human))", "pIC50": 8.40}
{"Compound": "CC(=O)Nc1nc(F)c(CN2C[C@H](Oc3cc(OC4CN(C)C4)ncn3)C[C@@H]2C)s1", "Study System": "OGA (S400 O-GLCNAC), HEK-293T cells transfected with Tau-V5 (Homo sapiens (Human))", "pIC50": 8.15}

[a] CC(=O)Nc1nc(F)c(CN2CCC[C@H](Oc3cc(C)nc(C)c3)C2)s1
[b] CC(=O)Nc1ncc(CN2C[C@H](Oc3cc(C(F)F)ncn3)C[C@@H]2C)s1
[c] CC(=O)Nc1ncc(CN2C[C@H](Oc3cnc(C)cn3)C[C@@H]2C)s1
[d] CC(=O)Nc1nc(F)c(CN2C[C@H](Oc3cc(C)nc(C)c3)C[C@H]2C)s1 (stereo in doubt)
[e] CC(=O)Nc1nc(F)c(CN2C[C@H](Oc3ccc(F)cn3)C[C@@H]2C)s1
# rank by pIC50, ascending (min first) Your answer should be the labels, listed in the requested order.
a, d, b, c, e

[I] [2H]C([2H])([2H])Oc1cc(O[C@@H]2C[C@H](C)N(Cc3sc(NC(C)=O)nc3F)C2)ncn1 (single isomer, unassigned)
[II] CC(=O)Nc1ncc(CN2CCC[C@@H](Oc3cc(C)nc(C)c3)C2)s1
Would you mind telling me which has the lower recorded pIC50 between I and II ? Give the label under which the chosen entry appears.
II

[P] COCCOc1cc(O[C@@H]2C[C@H](C)N(Cc3cnc(NC(C)=O)s3)C2)ncn1
[Q] CC(=O)Nc1ncc(CN2CCC[C@H](Oc3ccc(F)cn3)C2)s1
// max by pIC50 over [ P , Q ] Give the label under which the chosen entry appears.
P
(P: 8.52, Q: 7.46)
